- Test system: Enterococcus faecalis
- Method Notes: Susceptibility testing, NCCLS microdilution MIC
- Format: cell-based
- Condition Context: Enterococcus faecalis, ATCC29212; E. faecalis ATCC 29212; Example A′; read-out: MIC E. faecalis
I'd appreciate it if you marked entries Met when MIC is lower than 0.2 µg/mL and Not met when it is not.

Sample answers from the record:
[[record]]
compound = "CS[C@H]1O[C@H]([C@H](NC(=O)[C@@H]2CC[C@H](CCC(F)F)CCN2)[C@H](C)Cl)[C@H](O)[C@H](O)[C@H]1O"
answer_label = "Met"

[[record]]
compound = "COCc1cn(CCC[C@@H]2CCN[C@H](C(=O)N[C@@H]([C@H]3O[C@H](SC)[C@H](O)[C@@H](O)[C@H]3O)[C@H](C)Cl)CC2)nn1"
answer_label = "Not met"

[[record]]
compound = "CS[C@H]1O[C@H]([C@H](NC(=O)[C@@H]2CCCCCN2)[C@H](C)Cl)[C@H](O)[C@H](O)[C@H]1O [VIII(18), reference compound]"
answer_label = "Not met"

[[record]]
compound = "CS[C@H]1O[C@H]([C@H](NC(=O)[C@@H]2CC[C@H](CCCC(F)F)CCN2)[C@H](C)Cl)[C@H](O)[C@H](O)[C@H]1O"
answer_label = "Met"

[[record]]
compound = "CCOCCC[C@@H]1CCN[C@H](C(=O)N[C@@H]([C@H]2O[C@H](SC)[C@H](O)[C@@H](O)[C@H]2O)[C@H](C)Cl)CC1"
answer_label = "Not met"

[[record]]
compound = "CS[C@H]1O[C@H]([C@H](NC(=O)C2CC[C@H](CCCCC#N)CCN2)[C@H](C)Cl)[C@H](O)[C@H](O)[C@H]1O (stereo in doubt)"
answer_label = "Met"

[[record]]
compound = "CS[C@H]1O[C@H]([C@H](NC(=O)C2CC[C@H](CCCC#N)CCN2)[C@H](C)Cl)[C@H](O)[C@H](O)[C@H]1O (stereo in doubt)"
answer_label = "Not met"

[[record]]
compound = "CCCc1cn(CCC[C@@H]2CCN[C@H](C(=O)N[C@@H]([C@H]3O[C@H](SC)[C@H](O)[C@@H](O)[C@H]3O)[C@H](C)Cl)CC2)nn1"
answer_label = "Not met"


**Query** Is MIC strictly under 0.2 µg/mL for the entry CS[C@H]1O[C@H]([C@H](NC(=O)C2CC[C@H](CCCO)CCN2)[C@H](C)Cl)[C@H](O)[C@H](O)[C@H]1O (stereo in doubt) ?
**Result** Not met

**Query** Is MIC strictly under 0.2 µg/mL for the entry CS[C@H]1O[C@H]([C@H](NC(=O)C2CC[C@H](CCCCF)CCN2)C(C)C)[C@H](O)[C@H](O)[C@H]1O (stereo in doubt) ?
**Result** Met
